# targetOrTestSystem: UniProt:P51531
# Sequence (P51531 whole entry): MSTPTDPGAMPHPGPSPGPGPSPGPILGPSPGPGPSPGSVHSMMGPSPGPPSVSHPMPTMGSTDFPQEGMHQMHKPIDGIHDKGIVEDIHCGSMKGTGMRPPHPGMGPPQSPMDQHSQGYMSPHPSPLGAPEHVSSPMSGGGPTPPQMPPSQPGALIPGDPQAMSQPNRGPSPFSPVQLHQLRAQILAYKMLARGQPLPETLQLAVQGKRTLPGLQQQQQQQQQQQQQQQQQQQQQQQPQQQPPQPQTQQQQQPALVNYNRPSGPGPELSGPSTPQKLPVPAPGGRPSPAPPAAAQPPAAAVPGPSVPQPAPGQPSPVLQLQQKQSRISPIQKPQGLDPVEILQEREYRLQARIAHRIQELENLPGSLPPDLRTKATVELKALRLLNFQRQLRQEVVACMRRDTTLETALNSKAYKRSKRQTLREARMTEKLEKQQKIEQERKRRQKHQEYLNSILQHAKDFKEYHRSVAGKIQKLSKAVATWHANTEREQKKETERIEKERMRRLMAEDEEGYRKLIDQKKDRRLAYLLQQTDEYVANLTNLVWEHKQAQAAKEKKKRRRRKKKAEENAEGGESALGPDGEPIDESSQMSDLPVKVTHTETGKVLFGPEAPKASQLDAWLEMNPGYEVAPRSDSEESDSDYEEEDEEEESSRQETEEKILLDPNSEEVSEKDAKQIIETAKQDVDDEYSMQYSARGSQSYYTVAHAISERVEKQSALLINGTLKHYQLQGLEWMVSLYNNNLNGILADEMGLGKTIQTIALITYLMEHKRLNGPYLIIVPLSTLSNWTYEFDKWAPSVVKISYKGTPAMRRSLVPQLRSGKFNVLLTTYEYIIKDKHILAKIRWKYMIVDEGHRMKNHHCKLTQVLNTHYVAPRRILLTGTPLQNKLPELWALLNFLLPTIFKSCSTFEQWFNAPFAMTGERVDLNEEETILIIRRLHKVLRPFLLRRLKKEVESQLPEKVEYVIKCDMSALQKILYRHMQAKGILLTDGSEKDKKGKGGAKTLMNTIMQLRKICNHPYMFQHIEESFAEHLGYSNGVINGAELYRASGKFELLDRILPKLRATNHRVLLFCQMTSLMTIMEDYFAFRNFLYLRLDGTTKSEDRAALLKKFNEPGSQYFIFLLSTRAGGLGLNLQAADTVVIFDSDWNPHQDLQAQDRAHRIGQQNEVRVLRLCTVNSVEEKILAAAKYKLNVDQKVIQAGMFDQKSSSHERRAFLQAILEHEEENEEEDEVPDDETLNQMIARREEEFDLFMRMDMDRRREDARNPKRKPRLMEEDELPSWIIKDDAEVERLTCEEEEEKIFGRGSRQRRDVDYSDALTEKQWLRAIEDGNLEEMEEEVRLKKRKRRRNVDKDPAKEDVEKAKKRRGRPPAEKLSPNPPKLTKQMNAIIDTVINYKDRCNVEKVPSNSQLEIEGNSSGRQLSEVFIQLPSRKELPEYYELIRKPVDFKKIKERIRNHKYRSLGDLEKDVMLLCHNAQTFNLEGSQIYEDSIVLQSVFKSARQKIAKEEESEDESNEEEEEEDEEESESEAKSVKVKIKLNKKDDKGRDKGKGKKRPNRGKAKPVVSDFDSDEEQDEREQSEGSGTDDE
# assayName: MSD SMARCA2 degradation in A549 cell line
# Type: cell-based
# assaySetup: A549 cells, 24 h, read-out: SMARCA2 MSD A549 degradation 24 h: Average external-Abs DC50
endpointName: DC50

C#Cc1ccc(CNC(=O)[C@@H]2C[C@@H](O)CN2C(=O)[C@@H](NC(=O)N2CC3(CC(N4CCC(c5cnc(N6CCc7[nH]c8nnc(-c9ccccc9O)cc8c7[C@H]6C)nc5)CC4)C3)C2)C(C)(C)CCN2CCNCC2)cc1 [I-340] : > 100 nM
C#Cc1ccc(CNC(=O)[C@@H]2C[C@@H](O)CN2C(=O)[C@@H](NC(=O)N2CC3(CC(N4CCC(N5CCc6[nH]c7nnc(-c8ccccc8O)cc7c6[C@H]5C)CC4)C3)C2)C(C)(C)C)cc1 [I-191] : > 100 nM
Cc1ncsc1-c1ccc(CNC(=O)[C@@H]2C[C@@H](O)CN2C(=O)[C@@H](NC(=O)[C@H]2CC3(C2)C[C@H](N2CCC(c4ccnc(N5CCN6c7cc(-c8ccccc8O)nnc7NC[C@H]6C5)n4)CC2)C3)C(C)(C)C)cc1 (single isomer, unassigned) [I-27] : 10 to 50 nM

Report measured DC50; entry is C#Cc1ccc(CNC(=O)[C@@H]2C[C@@H](O)CN2C(=O)[C@@H](NC(=O)[C@H]2CCC3(CC2)C[C@H](N2CCC(N4CC5(CC(N6CCN7c8cc(-c9ccccc9O)nnc8NC[C@H]7C6)C5)C4)CC2)C3)C(C)(C)C)c(Cl)c1 (single isomer, unassigned) [I-238] > 100 nM
